# test details: NCI Yeast Anticancer Drug Screen. Data for the mlh1 rad18 strain (AID 175)
# measurement parameters: S. cerevisiae mlh1 rad18 strain growth inhibition; at 5.0 µM (retest, dose inferred, filed as 0.5); hits give high values
# Method: Growth inhibition of yeast strains with defined genetic alterations is measured as a screen for potential anti-cancer activity. Selected strains with alterations in DNA damage repair or cell cycle control were exposed to compounds and growth inhibition was measured relative to vehicle treated controls. The strain used in this assay is mlh1 rad18
This is part of a sample that, as a whole, favours compounds with a hit. Of some 79,000 tested, about 15% had one in any assay.
assay endpoint: growth inhibition (%)
Output spec: scalar in %, unitless text.

Task: Fill in the blank: the reported growth inhibition of Oc1[nH]c2ccccc2c1N=NC(=S)N1CCCC1 is ____.
Result: 13

Task: Fill in the blank: the reported growth inhibition of CN(C)CCC[Si]1(C)c2ccccc2CCc2ccccc21 is ____.
Result: -3

Task: Fill in the blank: the reported growth inhibition of OCC(CCc1c[nH]c2ccccc12)c1c[nH]c2ccccc12 (stereo unspecified) is ____.
Result: 11

Task: Fill in the blank: the reported growth inhibition of C[N+]1(Cc2ccc([N+](=O)[O-])cc2)CCC[C@H]1c1ccc[n+](Cc2ccc([N+](=O)[O-])cc2)c1 (stereo partly specified) is ____.
Result: -28

Task: Fill in the blank: the reported growth inhibition of O=[N+]([O-])c1cc(I)cc(/C=N/NS(=O)(=O)c2ccc(F)cc2)c1O is ____.
Result: 17

Task: Fill in the blank: the reported growth inhibition of O=C(Nc1cccc(C(F)(F)F)c1)c1cc(Br)cc(Br)c1O is ____.
Result: 52

Task: Fill in the blank: the reported growth inhibition of O=C1c2ccccc2C(=O)c2cc(N3C(=O)C=CC3=O)ccc21 is ____.
Result: 47

Task: Fill in the blank: the reported growth inhibition of Oc1c(Cl)cccc1-c1ccccc1 is ____.
Result: -1

Task: Fill in the blank: the reported growth inhibition of NC(=S)N/N=C/c1cn(CCCl)c2ccccc12 is ____.
Result: -32

Task: Fill in the blank: the reported growth inhibition of O=C(O)c1nc2cc(C(F)(F)F)ccc2nc1Nc1ccc(Cl)c(Cl)c1 is ____.
Result: 19

Task: Fill in the blank: the reported growth inhibition of COc1ccc2c(c1)CCC1OC(c3cccnc3)OC21 (stereo unspecified) is ____.
Result: -10

Task: Fill in the blank: the reported growth inhibition of COc1ccc(/C=C2\CCC/C(=C\c3ccc(OC)cc3)C2=O)cc1 is ____.
Result: -8

Task: Fill in the blank: the reported growth inhibition of N#CC1=C(N)OC(c2ccccc2)=C(C#N)C1c1ccccc1[N+](=O)[O-] (stereo unspecified) is ____.
Result: 2

Task: Fill in the blank: the reported growth inhibition of Nc1ccc2c(c1)[nH]c(=O)c1cc(Cl)c(Cl)cc12 is ____.
Result: 53

Task: Fill in the blank: the reported growth inhibition of COc1ccc(-c2nc(N)n(C)c2SSc2c(-c3ccc(OC)cc3)nc(N)n2C)cc1 is ____.
Result: -2

Task: Fill in the blank: the reported growth inhibition of CCOC(=O)c1ccc2c3c([nH]c2c1C)-c1ccccc1CC3 is ____.
Result: 14

Task: Fill in the blank: the reported growth inhibition of CC1c2cc(c3c(c2O)CN([C@@H](C)C2CCCCC2)CO3)C(C)c2cc(c3c(c2O)CN([C@@H](C)C2CCCCC2)CO3)C(C)c2cc(c3c(c2O)CN([C@@H](C)C2CCCCC2)CO3)C(C)c2cc1c1c(c2O)CN([C@@H](C)C2CCCCC2)CO1 (stereo partly specified) is ____.
Result: -6

Task: Fill in the blank: the reported growth inhibition of O=C([O-])c1ccccc1[I+]c1ccc(C2CCCCC2)cc1 is ____.
Result: 32

Task: Fill in the blank: the reported growth inhibition of COC(OC)(c1ccccc1)C(Br)Br is ____.
Result: -12

Task: Fill in the blank: the reported growth inhibition of CNC(=O)OCCC(OC(=O)NC)C1CCC2C3CC=C4CC(OC(=O)NC)CCC4(C)C3CCC12C (stereo unspecified) is ____.
Result: 88

Task: Fill in the blank: the reported growth inhibition of N#Cc1cn(-c2c3ccccc3nc3ccccc23)c(=O)[nH]c1=O is ____.
Result: 14

====

# test details: NCI Yeast Anticancer Drug Screen. Data for the mlh1 rad18 strain (AID 175)
# measurement parameters: S. cerevisiae mlh1 rad18 strain growth inhibition; at 50.0 µM
The panel holds about 79,000 compounds, 15% with a hit somewhere; the sample as a whole holds those more often. Active and inactive are the calls of the source. No stated cut-off is given here; in the data, active means growth inhibition above about 70%; inactive means the rest.
Your response should consist of one outcome taken from YES (active), NO (inactive)

Task: Query: recorded result category for O=[N+]([O-])C1CCC(C2=CSC3CCCCC3N2)CC1 (stereo not given) in this test
Result: NO

Task: Query: recorded result category for CC(C)OC(=O)c1ccc(NC(=O)CCl)cc1 in this test
Result: YES

Task: Query: recorded result category for CCCCNCCC1(c2ccccc2)C(=O)Oc2ccccc21 (stereo not given) in this test
Result: NO

Task: Query: recorded result category for O=C(CCCl)Nc1cc2ccccc2oc1=O in this test
Result: NO

Task: Query: recorded result category for Cc1ccc(Sc2ccc3ccccc3n2)cc1 in this test
Result: NO

Task: Query: recorded result category for Fc1ccc(NC(=S)SCc2ccc(Cl)c(Cl)c2)cc1 in this test
Result: YES

Task: Query: recorded result category for Brc1cccc[n+]1Cc1cc2ccccc2c2ccccc12 in this test
Result: YES

Task: Query: recorded result category for C[n+]1c(/C=C/c2ccccc2Cl)sc2ccccc21 in this test
Result: YES

Task: Query: recorded result category for Clc1ccccc1NN(Cc1ccccn1)c1ccccc1Cl in this test
Result: YES

Task: Query: recorded result category for CC(=O)C(C(=O)CCSCCO)C(SCCO)c1ccc(Cl)c(Cl)c1 (stereo not given) in this test
Result: YES

Task: Query: recorded result category for O=C(O)c1ccccc1SC(Sc1ccccc1C(=O)O)c1cccc(Cl)c1 in this test
Result: YES

Task: Query: recorded result category for OCc1cc2c([nH]c3ccccc32)c(C(O)CO)n1 (stereo not given) in this test
Result: NO

Task: Query: recorded result category for COc1cc2c(cc1OC)-c1nc(Nc3ccccc3)sc1CC2 in this test
Result: YES

Task: Query: recorded result category for CCn1c2ccccc2c(=O)c2c(OC)ccc(OC)c21 in this test
Result: YES

Task: Query: recorded result category for O=C(c1ccccc1)c1ccc(OCC2CO2)cc1 (stereo not given) in this test
Result: YES

Task: Query: recorded result category for c1ccc2c(c1)CCN2CCc1c[nH]c2ccccc12 in this test
Result: YES

Task: Query: recorded result category for N#CC1=C(N)OC(c2ccccc2)=C(C#N)C1c1ccccc1 (stereo not given) in this test
Result: YES

Task: Query: recorded result category for O=c1oc(-c2ccccc2Br)ns1 in this test
Result: YES

Task: Query: recorded result category for COc1ccc2c(c1OC)C1=C(C2=O)c2cc3c(cc2CCN1)OCO3 in this test
Result: NO

Task: Query: recorded result category for CCN(CC)c1ccc(/C=C2/C[N+](C)(C)C/C(=C/c3ccc(N(CC)CC)cc3)C2=O)cc1 in this test
Result: YES

Task: Query: recorded result category for CCN(CC)CCOc1ccc(C(=C2CCCCC2)c2ccc(OCCN(CC)CC)cc2)cc1 in this test
Result: YES

Task: Query: recorded result category for COc1ccc(C(=O)Cn2c(C(C)=O)nc3ccccc32)cc1 in this test
Result: NO

Task: Query: recorded result category for CN(C)C(=O)N(C)/N=C/c1ccc([N+](=O)[O-])o1 in this test
Result: YES

Task: Query: recorded result category for CC1(C)C=CC2=C(O1)C(=O)c1ccccc1C2=O in this test
Result: NO

Task: Query: recorded result category for Oc1ccc(C/C=C/c2ccccc2)cc1O in this test
Result: YES

====

# test details: NCI Yeast Anticancer Drug Screen. Data for the mlh1 rad18 strain (AID 175)
# measurement parameters: S. cerevisiae mlh1 rad18 strain growth inhibition; at 5.0 µM (retest, dose inferred, filed as 0.5)
Compounds without any hit were thinned out: in the full panel of roughly 79,000, 15% have a hit. Activity calls are given as the source filed them. Rule as the data show it: active = growth inhibition above about 70%; inactive = the rest.
Your response should consist of one outcome taken from active, inactive

Task: Query: recorded result category for O=[N+]([O-])c1cc([N+](=O)[O-])c2ccccc2c1O in this test
Result: inactive

Task: Query: recorded result category for O=C(CCCCCCCCCCc1ccccc1)c1c(O)cccc1O in this test
Result: inactive

Task: Query: recorded result category for COc1ncc(Br)cc1C(=O)NCCc1ccc(S(=O)(=O)NC(=O)NC2CCCCC2)cc1 in this test
Result: inactive

Task: Query: recorded result category for OC(c1ccccc1)(C(F)(F)F)C(O)(c1ccccc1)C(F)(F)F (centres undefined) in this test
Result: active

Task: Query: recorded result category for COc1ccc(C2c3cc4c(cc3OC(C)(O)C2C)OCO4)cc1 (centres undefined) in this test
Result: inactive

Task: Query: recorded result category for CCc1ccccc1NC(=O)C(=O)CC(=O)c1ccc(Cl)s1 in this test
Result: inactive

Task: Query: recorded result category for CC(=O)N1C(C(=O)NNc2ccccc2)CSC1c1ccccc1 (centres undefined) in this test
Result: active

Task: Query: recorded result category for N=Nc1c(OC(=O)Nc2ccccc2)[nH]c2ccccc12 in this test
Result: inactive

Task: Query: recorded result category for Cc1ccc(CC2(C(=O)O)Cc3ccc(C)cc3C2)cc1 (centres undefined) in this test
Result: inactive

Task: Query: recorded result category for Cc1cc(S(=O)(=O)Nc2nc(N)nc(N(C)C)n2)c(SC(C(=O)O)c2ccccc2)cc1Cl (centres undefined) in this test
Result: inactive

Task: Query: recorded result category for NNc1ccc(Br)cc1 in this test
Result: inactive

Task: Query: recorded result category for O=C1c2ccccc2C(=O)N1C(=NCc1ccccc1)c1ccccc1 in this test
Result: inactive

Task: Query: recorded result category for CCCCCCCCCCCCNCc1ccc(Cl)c(Cl)c1 in this test
Result: active

Task: Query: recorded result category for C/C(=N\NC(=S)NC(C)(C)C)c1ccccn1 in this test
Result: inactive

Task: Query: recorded result category for Nc1cc2c(nc3c4ccccc4c(N)cc3[n+]2-c2cccc3ccccc23)c2ccccc12 (tested in a mixture with another compound) in this test
Result: active

Task: Query: recorded result category for Nc1nc(=O)n(C2OC(CO)C(O)C2O)cc1[N+](=O)[O-] (centres undefined) in this test
Result: inactive

Task: Query: recorded result category for CN(C)C(=S)SSSSC(=S)N(C)C in this test
Result: active

Task: Query: recorded result category for Cc1cc(Oc2nc(Cl)nc(C(Cl)(Cl)Cl)c2Cl)cc(C)c1N(C)C (tested in a mixture with another compound) in this test
Result: inactive

Task: Query: recorded result category for COc1ccccc1/C=C1\Sc2scc(-c3ccc(O)c(O)c3)[n+]2C1=O in this test
Result: inactive

Task: Query: recorded result category for C1CCC(CC[N+]23CC[N+](CCC4CCCC4)(CC2)C3)C1 in this test
Result: inactive

Task: Query: recorded result category for CC(C)(C)NC(=S)N/N=C/c1cc(Cl)cc(Cl)c1O in this test
Result: active

Task: Query: recorded result category for COC1=C(C)C(=O)C2=C(C1=O)C1C3CC4=C(C(=O)C(OC)=C(C)C4=O)C(CNC(=O)C(C)=O)N3C(C#N)C(C2)N1C (centres undefined) in this test
Result: inactive

Task: Query: recorded result category for Cc1nc(N)sc1N=Nc1ccccc1Br in this test
Result: inactive

Task: Query: recorded result category for COc1ccc(N=C2C(=S)N(c3ccc(OC)cc3)/C(=N/S(=O)(=O)c3ccccc3)N2c2ccccc2)cc1 in this test
Result: inactive

Task: Query: recorded result category for O=C1OS(=O)(=O)c2cc3c(cc21)C1C(C2C3C3(Cl)C(Cl)=C(Cl)C2(Cl)C3(Cl)Cl)C2(Cl)C(Cl)=C(Cl)C1(Cl)C2(Cl)Cl (centres undefined) in this test
Result: inactive

Task: Query: recorded result category for O=[N+]([O-])c1ccc(NNS(=O)(=O)c2ccccc2)c([N+](=O)[O-])c1 in this test
Result: inactive

Task: Query: recorded result category for CNc1c(C(=O)Nc2ccccc2)c(=O)n(C)c(=O)n1C in this test
Result: active

Task: Query: recorded result category for COc1cc2c(cc1OC)-c1nc(Nc3ccccc3)sc1CC2 in this test
Result: inactive

Task: Query: recorded result category for O=C1C(=C2C(=O)c3ccccc3[N+]2=O)N([O-])c2ccccc21 in this test
Result: inactive

Task: Query: recorded result category for CCCCCCCCCCCC1=NCC(C)N1 (centres undefined) in this test
Result: inactive

Task: Query: recorded result category for CC(=O)OC1=CC2=CCC3C(CCC4(C)C(C(C)=O)CCC34)C2(C)CC1 (centres undefined) in this test
Result: inactive

Task: Query: recorded result category for c1ccc2c(Nc3ccc(Oc4ccc(Nc5c6ccccc6nc6ccccc56)cc4)cc3)c3ccccc3nc2c1 in this test
Result: inactive

Task: Query: recorded result category for COc1ccc(C2=C(Cl)C(=O)N(c3ccccc3Cl)C(=O)C2(Cl)Cl)cc1 in this test
Result: inactive

Task: Query: recorded result category for CCc1cc(C)cc(NC(=O)OC2CCCCC2C)c1 (centres undefined) in this test
Result: inactive

Task: Query: recorded result category for O=C1CC2(CCN(CC3COc4ccccc4O3)CC2)C(=O)N1N1CCCCCC1 (centres undefined) in this test
Result: inactive

Task: Query: recorded result category for O=C(O)C(Cc1ccc(O)cc1)NC(=O)N(c1ccccc1)c1ccccc1 (centres undefined) in this test
Result: inactive

Task: Query: recorded result category for COc1ccc(C2Cc3cc(OC)ccc3C2=O)cc1 (centres undefined) in this test
Result: inactive

Task: Query: recorded result category for Cc1nn(C(=S)S)c(C)c1N=Nc1ccc(Br)cc1 in this test
Result: inactive

Task: Query: recorded result category for O=NN(CCCl)C(=O)Nc1cc(Cl)ccc1O in this test
Result: inactive

Task: Query: recorded result category for O=C1C=CC(=NN=C(c2ccccc2)c2ccccc2)C=C1 in this test
Result: inactive

Task: Query: recorded result category for O=C1NC(=S)S/C1=C/c1ccc(/C=C2/SC(=S)NC2=O)cc1 in this test
Result: inactive

Task: Query: recorded result category for Oc1ccccc1C(Sc1nc2ccccc2s1)Sc1nc2ccccc2s1 in this test
Result: inactive

Task: Query: recorded result category for CN(C)c1ncnc2c1ncn2C in this test
Result: inactive

Task: Query: recorded result category for NC(Cc1ccnnc1)C(=O)O (centres undefined) in this test
Result: inactive

From: PubChem BioAssay (NCI)
